All values here come from paper PMC6792352.

compounds and their reported CC50 at 24 h
Assay: in vitro
Details: rat, gh3-tre-luc cells, AC50 (uM) modified / 1000
Where a name gives a salt, the structure may show the parent alone.

- compound: "C[C@@H](O)C(=O)O"
  CC50 at 24 h: "> 100 µM"
- compound: "C=CCN1CC[C@]23c4c5ccc(O)c4O[C@H]2C(=O)CC[C@@]3(O)[C@H]1C5"
  CC50 at 24 h: "> 50 µM"
- compound: "Cc1ccc(NC(N)=O)cc1"
  CC50 at 24 h: "> 90 µM"
- compound: "O=[N+]([O-])c1cccc(C(F)(F)F)c1"
  CC50 at 24 h: "> 90 µM"
- compound: "N[C@@H](CCC(=O)O)C(=O)O [L-Glutamic acid hydrochloride]"
  CC50 at 24 h: "> 90 µM"
- compound: "C[C@H]1C[C@@H]2[C@H]([C@@H](O)C[C@@]3(C)[C@H]2CC[C@]3(O)C(=O)COC(=O)CCC(=O)O)[C@@]2(C)C=CC(=O)C=C12 [Methylprednisolone succinate]"
  CC50 at 24 h: "> 50 µM"

Let us examine a further case.
Lab book: CC50 at 24 h of `CN1CCN(Cc2cc(-c3ccc4[nH]c(=O)oc4c3)co2)[C@@H](c2ccc(F)cc2)C1` noted as 24.8 µM

====

compounds and their reported CC50 at 24 h
Assay: in vitro
Details: rat, gh3-tre-luc cells, AC50 (uM) modified / 1000
Structures can show the parent of a compound that is named as a salt.

Lab book: CC50 at 24 h of COC[C@@H](c1ccc(C(F)(F)F)cc1)N1CCN(C2(C)CCN(C(=O)c3c(C)ncnc3C)CC2)C[C@@H]1C [Vicriviroc maleate] noted as > 50 µM

Lab book: CC50 at 24 h of `CCC(C)(C)C` noted as > 100 µM

Lab book: CC50 at 24 h of `N#CC(C#N)=Cc1ccc(O)c(O)c1` noted as 16.8 µM

Lab book: CC50 at 24 h of `O=S(=O)(Oc1ccc(Cl)cc1)c1ccccc1` noted as > 90 µM

Lab book: CC50 at 24 h of `NC(=O)[C@@H]1C[C@]2(NC(=O)NC2=O)c2cc(F)ccc2O1` noted as > 50 µM

Lab book: CC50 at 24 h of CCCCCCCC/C=C\CCCCCCCC(=O)OCCOC(=O)CCCCCCC/C=C\CCCCCCCC [Polyethylene glycol dioleate] noted as > 100 µM

Lab book: CC50 at 24 h of NC(=O)Cc1cccc2ccccc12 [1-Naphthaleneacetamide] noted as > 90 µM

Lab book: CC50 at 24 h of `CCCCCCCCCCCCCCCCCC[n+]1ccn(C)c1` noted as 9.82 µM

Lab book: CC50 at 24 h of `ClCCl` noted as > 90 µM

Lab book: CC50 at 24 h of CC1(C)S[C@@H]2[C@H](NC(=O)[C@H](N)c3ccccc3)C(=O)N2[C@H]1C(=O)O [Ampicillin trihydrate] noted as > 90 µM

Lab book: CC50 at 24 h of CCn1ccnc1CC1COc2ccccc2O1 (centres unmarked) noted as > 50 µM

Lab book: CC50 at 24 h of OC1OCCOC1O (centres unmarked) noted as > 90 µM

Lab book: CC50 at 24 h of `CC1=C(C=O)C(C)(C)CCC1` noted as > 90 µM

Lab book: CC50 at 24 h of `CC(C)Cc1ccc([C@@H](C)C(=O)NS(C)(=O)=O)cc1` noted as > 50 µM

Lab book: CC50 at 24 h of O=C(O)c1cccc(O)c1 [3-Hydroxybenzoic acid] noted as > 90 µM

Lab book: CC50 at 24 h of CCCCOC(=O)/C=C\C(=O)OCCCC [Dibutyl maleate] noted as > 90 µM

Lab book: CC50 at 24 h of `CCNc1nc(Cl)nc(NC(C)C)n1` noted as > 90 µM

Lab book: CC50 at 24 h of `CN(C)C(=O)NC1(c2ccccc2)CCN(CC[C@@]2(c3ccc(F)c(F)c3)CN(C(=O)c3ccccc3)CCO2)CC1` noted as 55.6 µM

Lab book: CC50 at 24 h of `CCNC(=O)NCCCOc1cccc(CN2CCCCC2)c1` noted as > 50 µM

Lab book: CC50 at 24 h of `CN(N=O)c1ccccc1` noted as > 90 µM

Lab book: CC50 at 24 h of Cn1c(NCCN(CCO)CCCc2ccc([N+](=O)[O-])cc2)cc(=O)n(C)c1=O [Nifekalant hydrochloride] noted as > 50 µM

Lab book: CC50 at 24 h of `Cc1cccc(C)c1NC(=O)/N=C1\CCCN1C` noted as > 50 µM

Lab book: CC50 at 24 h of O=c1c(O)c(-c2ccc(O)c(O)c2)oc2cc(O)cc(O)c12 [Quercetin dihydrate] noted as 57 µM

Lab book: CC50 at 24 h of `O=C(O)c1cccc(C(=O)O)c1C(=O)O` noted as > 90 µM

Lab book: CC50 at 24 h of CCCCCCCCCCCCSC#N [Lauryl thiocyanate] noted as > 90 µM

Lab book: CC50 at 24 h of CCCCC(CC)COC(=O)C(C#N)=C(c1ccccc1)c1ccccc1 (centres unmarked) noted as > 90 µM

====

Molecular target: TRα ligand-binding domain (Homo sapiens, UniProt P10827)
Construct: the receptor LBDs expressed as glutathione S-transferase (GST) fusion proteins; purchased
Sequence (P10827 163-410 isoform P10827-2 limits assumed, other chains not shown): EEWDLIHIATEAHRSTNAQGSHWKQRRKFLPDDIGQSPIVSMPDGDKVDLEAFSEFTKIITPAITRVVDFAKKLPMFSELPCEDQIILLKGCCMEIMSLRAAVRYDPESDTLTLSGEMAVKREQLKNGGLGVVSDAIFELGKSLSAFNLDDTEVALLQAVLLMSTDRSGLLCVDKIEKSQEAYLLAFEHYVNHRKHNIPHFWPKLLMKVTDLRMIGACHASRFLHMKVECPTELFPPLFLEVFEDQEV
Experiment: TRa-coa LanthaScreen TR-FRET coactivator (SRC-2 peptide) recruitment, agonist (TOX21_TRA_COA_Agonist_Followup_ratio, aeid 2230)
Format: biochemical
Settings: cell-free coactivator recruitment; read-out: TRa-coa-Ag AC50
compounds and their reported AC50

Some entries whose results are on file:
- compound: "CC1=C(/C=C/C(C)=C/C=C/C(C)=C/C(=O)O)C(C)(C)CCC1 [all trans-Retinoic acid, reference compound]"
  reportedMeasurement: "> 92 µM"
- compound: "CC1=C(/C=C/C(C)=C/C=C/C(C)=C\\C(=O)O)C(C)(C)CCC1 [13-cis Retinoic acid, reference compound]"
  reportedMeasurement: "> 92 µM"

Known value: TRα ligand-binding domain (Homo sapiens, UniProt P10827) AC50 of the compound C=C(c1ccc(C(=O)O)cc1)c1cc2c(cc1C)C(C)(C)CCC2(C)C [Bexarotene, reference compound] equals > 92 µM

====

System: thyroid hormone receptor (endogenous TRα and TRβ)
Experiment: GH3-TRE-Ag-Followup confirmation (TOX21_TR_LUC_GH3_Agonist_Followup, aeid 2226)
Assay type: cell-based, rat
measure: EMax (% of Control) gh3-tre-agonist-followup-1_agonist

Some entries whose results are on file:
- compound: "Cl.NC(CO)(CO)CO [Tromethamine hydrochloride]"
  reportedMeasurement: "67.8 % of Control"
- compound: "CC(C)(c1ccccc1)c1ccc(O)c(C(C)(C)c2ccccc2)c1"
  reportedMeasurement: "33.5 % of Control"
- compound: "CN(C)c1ccc(N=O)cc1"
  reportedMeasurement: "47.7 % of Control"

Lab book: EMax (% of Control) gh3-tre-agonist-followup-1_agonist of `C=C(NC(=O)C(=C)NC(=O)c1csc(C2=N[C@@H]3c4csc(n4)[C@H]4NC(=O)c5csc(n5)[C@H]([C@](C)(O)[C@@H](C)O)NC(=O)[C@H]5CSC(=N5)/C(=C/C)NC(=O)[C@H]([C@@H](C)O)NC(=O)c5csc(n5)[C@]3(CC2)NC(=O)[C@H](C)NC(=O)C(=C)NC(=O)[C@H](C)NC(=O)[C@H]([C@@H](C)CC)N[C@@H]2C=Cc3c([C@H](C)O)cc(nc3[C@H]2O)C(=O)O[C@@H]4C)n1)C(N)=O` noted as 28.2 % of Control

Lab book: EMax (% of Control) gh3-tre-agonist-followup-1_agonist of `N[C@@H](Cc1ccc(Oc2cc(I)c(O)c(I)c2)c(I)c1)C(=O)O` noted as 87.2 % of Control

====

compounds and their reported CC50 at 24 h
Experiment: in vitro
Conditions: rat, gh3-tre-luc cells, AC50 (uM) modified / 1000
Where a name gives a salt, the structure may show the parent alone.
Quick note: give the figure in µM, leave out the unit.

Lab book: CC50 at 24 h of Cc1c(N)nc([C@H](CC(N)=O)NC[C@H](N)C(N)=O)nc1C(=O)N[C@H](C(=O)N[C@H](C)[C@@H](O)[C@H](C)C(=O)N[C@H](C(=O)NCCc1nc(-c2nc(C(=O)NCCCN[C@@H](C)c3ccccc3)cs2)cs1)[C@@H](C)O)[C@@H](O[C@@H]1O[C@@H](CO)[C@@H](O)[C@H](O)[C@@H]1O[C@H]1O[C@H](CO)[C@@H](O)[C@H](OC(N)=O)[C@@H]1O)c1c[nH]cn1 [Peplomycin sulfate] noted as 2.77

Lab book: CC50 at 24 h of OCCN1CCN(CC/C=C2/c3ccccc3Sc3ccc(C(F)(F)F)cc32)CC1 [cis-Flupentixol] noted as 12.1
